Method Description: PK study in dogs (intravenous and oral)
Type: in vivo
Condition Notes: male, beagle, dog, plasma, intravenous 3 mg/kg, extrapolated
Test Readout: C0 (ng/mL)
Your answer should be a plain number; it is taken to be in ng/mL.

// lookup C0 for COc1cc2nccc(Oc3ccc(NC(=O)NC4CC4)c(Cl)c3)c2cc1C(N)=O [lenvatinib, Lenvatinib]
2440

###

Method Description: PK study in rats (intravenous and oral)
Format: in vivo
Condition Notes: male, Sprague-Dawley, rat, plasma, oral 30 mg/kg
Test Readout: AUC(0-inf)
Phrase the answer as number then unit, nothing more needed.

// lookup AUC(0-inf) for COc1cc2nccc(Oc3ccc(NC(=O)NC4CC4)c(Cl)c3)c2cc1C(N)=O [lenvatinib, Lenvatinib]
146 µg·h/mL

###

Method Description: PK study in monkeys (intravenous and oral)
Type: in vivo, cynomolgus monkeys
Condition Notes: male, cynomolgus, cynomolgus monkey, plasma, oral 3 mg/kg
Test Readout: half-life
Phrase the answer as number then unit, nothing more needed.

// lookup half-life for "COc1cc2nccc(Oc3ccc(NC(=O)NC4CC4)c(Cl)c3)c2cc1C(N)=O"
4.07 h

###

Method Description: PK study in monkeys (intravenous and oral)
Assay type: in vivo, cynomolgus monkeys
Condition Notes: male, cynomolgus monkey, plasma, oral 3 mg/kg
Description: Male cynomolgus monkeys were supplied from Prestasi Fauna Nusantara Ltd. (Jakarta, Indonesia) and were housed at Shin Nippon Biomedical Laboratories, Ltd. The PK study was performed in a cross-over design with 7 days interval between the doses for monkeys aged 3–4 years old. Monkeys were fasted a day before the PK study and feeding was resumed 4 h postdose. Dosing solution of lenvatinib used was the same as that in the other animal PK studies. […]
Test Readout: MRT (h)
Your answer should be a plain number; it is taken to be in h.

// lookup MRT for "COc1cc2nccc(Oc3ccc(NC(=O)NC4CC4)c(Cl)c3)c2cc1C(N)=O"
4.23

###

Method Description: PK study in monkeys (intravenous and oral)
Type: in vivo, cynomolgus monkeys
Condition Notes: male, cynomolgus monkey, plasma, oral 3 mg/kg
Description: Male cynomolgus monkeys were supplied from Prestasi Fauna Nusantara Ltd. (Jakarta, Indonesia) and were housed at Shin Nippon Biomedical Laboratories, Ltd. The PK study was performed in a cross-over design with 7 days interval between the doses for monkeys aged 3–4 years old. Monkeys were fasted a day before the PK study and feeding was resumed 4 h postdose. Dosing solution of lenvatinib used was the same as that in the other animal PK studies. […]
Test Readout: Cmax (ng/mL)
Your answer should be a plain number; it is taken to be in ng/mL.

// lookup Cmax for "COc1cc2nccc(Oc3ccc(NC(=O)NC4CC4)c(Cl)c3)c2cc1C(N)=O"
2500

###

Method Description: PK study in mice (intravenous and oral)
Format: in vivo
Condition Notes: female, BALB/cAnNCrj-nu/nu, mouse, plasma, oral 30 mg/kg
Test Readout: Tmax (h)
Your answer should be a plain number; it is taken to be in h.

// lookup Tmax for COc1cc2nccc(Oc3ccc(NC(=O)NC4CC4)c(Cl)c3)c2cc1C(N)=O [lenvatinib, Lenvatinib]
1

###

Method Description: PK study in mice (intravenous and oral)
Type: in vivo
Condition Notes: female, BALB/cAnNCrj-nu/nu, mouse, plasma, oral 10 mg/kg
Test Readout: MRT (h)
Your answer should be a plain number; it is taken to be in h.

// lookup MRT for "COc1cc2nccc(Oc3ccc(NC(=O)NC4CC4)c(Cl)c3)c2cc1C(N)=O"
3.01
